pIC50: −log10 of the molar value.
Collected literature values of pIC50 measured for UniProt Q9NWZ3.

Answered examples (3):
# Cn1cc(-n2ccc3nc(Nc4cc(C(=O)NCC5CCOCC5)cs4)nc(O[C@H]4CCOC4)c32)cn1 with UniProt Q9NWZ3: pIC50 is ≥ 7.00

Entry Cc1cccc(-n2ncc3ccc(-c4cccc(CN(C)C)n4)cc32)n1 , tested on UniProt Q9NWZ3, has a reported pIC50 of 6.00 to 7.00

Measured on UniProt Q9NWZ3, O=C(Nc1nc(CCCCCC(=O)N2CCCCCC2)cn1-c1ccccc1)c1cccc(-c2ccc3[nH]ncc3c2)c1 has a documented pIC50 of > 7.30

Consider now this further compound.
Here O[C@H]1CC[C@H](Nc2nc(Nc3ccc(OC4CCOC4)cc3)nc3ccsc23)CC1 (stereo partly shown) was tested on UniProt Q9NWZ3, and its pIC50 came to 6.00 to 7.00
